Target: T1, human IL-18BP (human, UniProt O95998 31-194)
T1 construct: also called hIL-18BP; Mature Human Isoform A
T1 sequence: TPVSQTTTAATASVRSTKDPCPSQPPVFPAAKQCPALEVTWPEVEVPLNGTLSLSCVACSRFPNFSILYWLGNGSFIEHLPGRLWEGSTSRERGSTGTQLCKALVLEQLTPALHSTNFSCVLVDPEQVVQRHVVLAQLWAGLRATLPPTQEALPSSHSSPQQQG
Assay: BLI, apparent KD, one conc.
Form field: Kd (one value per entry).
Give the value in nM but do not write nM after it.

Form: binder = SA301a light chain variant S28D (antibody, V domains shown) VH: QVQLQESGPGLVKPSQTLSLTCTVSGYSITSDYNSHWIRQPPGKGLEWIGYIHYSGSTNYNPSLKSRVTISRDTSKNQFSLKLSSVTAADTAVYYCARNYGSIYVNYFDYWGQGTLVTVSS VL: EIVLTQSPATLSLSPGERATLSCSASSDVSYMYWYQQKPGQAPRPLIYRTSNLASGIPARFSGSGSGTDFTLTISSLEPEDFAVYYCQQYHSYPTFGGGTKVEIK ; Kd = 0.42

Continuing:
Form: binder = SA301a light chain variant V29G (antibody, V domains shown) VH: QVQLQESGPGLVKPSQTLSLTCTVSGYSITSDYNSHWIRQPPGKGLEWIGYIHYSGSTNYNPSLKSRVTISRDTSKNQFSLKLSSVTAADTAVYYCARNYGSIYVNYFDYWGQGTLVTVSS VL: EIVLTQSPATLSLSPGERATLSCSASSSGSYMYWYQQKPGQAPRPLIYRTSNLASGIPARFSGSGSGTDFTLTISSLEPEDFAVYYCQQYHSYPTFGGGTKVEIK ; Kd = 0.41
